Target: Solute carrier organic anion transporter family member 1A4 (Rattus norvegicus)
Sequence (O35913 whole entry): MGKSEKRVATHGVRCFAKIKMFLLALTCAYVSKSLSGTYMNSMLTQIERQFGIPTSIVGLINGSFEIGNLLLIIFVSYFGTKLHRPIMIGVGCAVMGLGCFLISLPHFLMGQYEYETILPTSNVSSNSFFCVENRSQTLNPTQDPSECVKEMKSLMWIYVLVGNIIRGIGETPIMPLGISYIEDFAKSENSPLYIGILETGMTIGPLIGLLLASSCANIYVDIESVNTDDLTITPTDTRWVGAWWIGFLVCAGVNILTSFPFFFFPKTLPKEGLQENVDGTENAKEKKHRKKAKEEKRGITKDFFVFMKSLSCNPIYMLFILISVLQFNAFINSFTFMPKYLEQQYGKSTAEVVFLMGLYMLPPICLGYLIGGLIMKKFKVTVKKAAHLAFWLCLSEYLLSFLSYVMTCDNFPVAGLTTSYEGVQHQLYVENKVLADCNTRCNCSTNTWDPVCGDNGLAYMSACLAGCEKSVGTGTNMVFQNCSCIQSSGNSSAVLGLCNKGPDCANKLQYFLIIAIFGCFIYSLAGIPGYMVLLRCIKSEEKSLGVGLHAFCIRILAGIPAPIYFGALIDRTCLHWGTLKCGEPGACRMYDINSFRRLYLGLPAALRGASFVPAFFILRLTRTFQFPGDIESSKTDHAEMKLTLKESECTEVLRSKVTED
Test: TP_TRANSPORTER: uptake in Xenopus laevis oocytes
Format: functional, cell-based
Details: oocyte
RECORDED_ENDPOINT: Activity

INSERT INTO results (compound, recorded_endpoint, assay_value) VALUES
  ('C=C[C@H]1C[N+]2(C)CC[C@H]1C[C@@H]2[C@@H](O)c1ccnc2ccc(OC)cc12', 'Activity', 'is not a substrate [-]'),
  ('C=C[C@H]1C[N+]2(C)CC[C@H]1C[C@H]2[C@H](O)c1ccnc2ccc(OC)cc12', 'Activity', 'is not a substrate [-]'),
  ('C=CC[N+]1([C@H]2C[C@H]3[C@@H]4CC[C@H]5C[C@H](O)[C@@H](N6CCOCC6)C[C@]5(C)[C@H]4CC[C@]3(C)[C@H]2OC(C)=O)CCCC1 [ROCURONIUM]', 'Activity', 'substrate [+]'),
  ('CCC1C[N+]2(CCCC3(C)N=N3)C3CC45c6ccccc6N(C)C4C2CC1C3C5O (centres undefined)', 'Activity', 'substrate [+]');

----------
Task for the reader: assign each of the following compounds its reported Km.
Target: UniProt P46721
Sequence (P46721 whole entry): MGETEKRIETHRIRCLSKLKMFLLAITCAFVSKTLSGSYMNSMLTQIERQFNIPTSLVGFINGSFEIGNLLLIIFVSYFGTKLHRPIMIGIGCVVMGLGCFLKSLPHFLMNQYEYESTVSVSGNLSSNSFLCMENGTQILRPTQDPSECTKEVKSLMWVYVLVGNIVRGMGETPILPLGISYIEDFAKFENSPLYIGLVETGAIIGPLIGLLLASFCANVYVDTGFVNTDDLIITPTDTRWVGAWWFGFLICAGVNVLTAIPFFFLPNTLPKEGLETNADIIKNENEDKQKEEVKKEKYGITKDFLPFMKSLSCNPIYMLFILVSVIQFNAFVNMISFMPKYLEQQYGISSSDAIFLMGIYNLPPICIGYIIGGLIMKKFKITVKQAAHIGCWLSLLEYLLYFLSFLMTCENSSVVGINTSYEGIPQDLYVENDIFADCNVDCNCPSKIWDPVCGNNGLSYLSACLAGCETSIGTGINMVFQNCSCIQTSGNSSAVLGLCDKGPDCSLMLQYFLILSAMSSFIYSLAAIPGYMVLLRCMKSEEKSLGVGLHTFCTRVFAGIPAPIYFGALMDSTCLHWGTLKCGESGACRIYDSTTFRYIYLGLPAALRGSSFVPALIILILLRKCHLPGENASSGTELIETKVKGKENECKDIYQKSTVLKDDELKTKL
Test: TP_TRANSPORTER: uptake in Xenopus laevis oocytes
Type: functional, cell-based, Oocyte
Details: Xenopus laevis oocytes expressing the transporter
Give bare numbers, in µM.

INSERT INTO results (smiles_structure, target_of_assay, recorded_endpoint, assay_value) VALUES
  ('C=C[C@H]1C[N+]2(C)CC[C@H]1C[C@H]2[C@H](O)c1ccnc2ccc(OC)cc12', 'UniProt P46721', 'Km', 5.1);

Now for the compound whose Km we want.
Please list Km recorded for the compound C=C[C@H]1C[N+]2(C)CC[C@H]1C[C@@H]2[C@@H](O)c1ccnc2ccc(OC)cc12
25.6

----------
Target: UniProtKB P46720
Sequence (P46720 whole entry): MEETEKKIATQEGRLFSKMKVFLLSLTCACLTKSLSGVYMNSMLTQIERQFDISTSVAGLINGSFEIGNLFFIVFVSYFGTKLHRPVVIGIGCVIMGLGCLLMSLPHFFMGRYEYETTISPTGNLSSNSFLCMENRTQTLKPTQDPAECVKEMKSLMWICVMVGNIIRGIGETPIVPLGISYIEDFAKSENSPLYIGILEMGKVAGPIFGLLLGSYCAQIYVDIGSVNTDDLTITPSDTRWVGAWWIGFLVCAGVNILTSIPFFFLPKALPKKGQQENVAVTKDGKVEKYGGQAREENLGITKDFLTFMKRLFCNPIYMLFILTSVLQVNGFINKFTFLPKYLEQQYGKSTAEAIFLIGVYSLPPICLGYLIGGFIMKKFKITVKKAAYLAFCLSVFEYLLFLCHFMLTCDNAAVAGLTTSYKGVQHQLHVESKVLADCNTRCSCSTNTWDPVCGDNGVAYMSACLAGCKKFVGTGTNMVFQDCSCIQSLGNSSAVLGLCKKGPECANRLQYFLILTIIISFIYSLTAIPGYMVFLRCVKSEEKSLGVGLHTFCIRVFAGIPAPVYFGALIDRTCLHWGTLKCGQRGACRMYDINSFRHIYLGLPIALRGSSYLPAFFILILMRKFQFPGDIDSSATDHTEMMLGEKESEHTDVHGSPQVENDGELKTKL
Experiment: TP_TRANSPORTER: uptake in Xenopus laevis oocytes
Format: functional, cell-based
Conditions: oocyte
RECORDED_ENDPOINT: Activity

INSERT INTO measurements (molecule, assay_value) VALUES
  ('C=C[C@H]1C[N+]2(C)CC[C@H]1C[C@H]2[C@H](O)c1ccnc2ccc(OC)cc12', 'substrate [+]'),
  ('C=CC[N+]1([C@H]2C[C@H]3[C@@H]4CC[C@H]5C[C@H](O)[C@@H](N6CCOCC6)C[C@]5(C)[C@H]4CC[C@]3(C)[C@H]2OC(C)=O)CCCC1', 'substrate [+]'),
  ('CCC1C[N+]2(CCCC3(C)N=N3)C3CC45c6ccccc6N(C)C4C2CC1C3C5O (centres undefined)', 'substrate [+]');

From: ChEMBL document CHEMBL2074320
